Data credit: patent US20120021972A1

Molecular target: human glucagon receptor (human, UniProt P47871 26-477)
Assay: cell-based or functional assay
Starred links: 1 amine or outer side, 2 acyl side, 3 side chain; linkers in the order of their positions; H or OH if unused. Non-standard residues stand in square brackets, D forms with d. No end group written: not given here. 2,4‑diF‑APPA = 2-amino-5-(2,4-difluorophenyl)pentanoic acid, O=C([C@H](CCCc1ccc(F)cc1F)N[*:1])[*:2]; ACPP = 2-amino-5-(3-chlorophenyl)pentanoic acid, O=C([C@H](CCCc1cccc(Cl)c1)N[*:1])[*:2]; 2CF3,4F‑APPA = 2-amino-5-(4-fluoro-2-(trifluoromethyl)phenyl)pentanoic acid; 2F,4CF3‑APPA = 2-amino-5-(2-fluoro-4-(trifluoromethyl)phenyl)pentanoic acid; Bip(2'-Et-4'-OMe) = CCc1cc(OC)ccc1-c1ccc(C[C@H](N)C(=O)O)cc1; Leu(5,5,5,5',5',5'-F6) = N[C@@H](CC(C(F)(F)F)C(F)(F)F)C(=O)O; 2F‑APPA = 2-amino-5-(2-fluorophenyl)pentanoic acid; αMePhe(2-F) = C[C@](N)(Cc1ccccc1F)C(=O)O; hhPhe = N[C@@H](CCCc1ccccc1)C(=O)O; aThr = C[C@H](O)[C@H](N)C(=O)O; αMeP = C[C@@]1(C(=O)O)CCCN1; CNB = not defined here; Ac3c = NC1(C(=O)O)CC1; Aib = CC(C)(N)C(=O)O
attribute measured: inhibition of cAMP production, 10 nM (pmol/ml/µg prt)

binder="HSQGTFTSD[Bip(2'-Et-4'-OMe)][2F‑APPA] [Seq. ID. No. 45: HSQGTFTSD-Bip(OMe)-(2F-APPA)]" numeric_result=12
binder="H[Aib][CNB]G[aThr][αMePhe(2-F)][aThr]SD[Bip(2'-Et-4'-OMe)][hhPhe] (reading uncertain; also: thioamide bonds between residues 9-10 and 10-11) [Seq. ID. No. 178: H-Aib-(CNB)-G-T(allo)-(α-Me-2F-Phe)-T(allo)-SD-(C═S)-Bip(OMe)-(C═S)-(APPA)]" numeric_result=0
binder="H[Aib][CNB]GTFTSD[Bip(2'-Et-4'-OMe)][2,4‑diF‑APPA] (reading uncertain) [Seq. ID. No. 78: H-Aib-(CNB)-GTFTSD-Bip(OMe)-(2,4-diF-APPA)]" numeric_result=21
binder="H[Aib]QGTFTSD[Bip(2'-Et-4'-OMe)][2F,4CF3‑APPA] [Seq. ID. No. 65: H-Aib-QGTFTSD-Bip(OMe)-(2F,4CF3-APPA)]" numeric_result=8
binder="H[Ac3c]QGTFTSD[Bip(2'-Et-4'-OMe)][2CF3,4F‑APPA] [Seq. ID. No. 72: H-(ACP)-QGTFTSD-Bip(OMe)-(2CF3,4F-APPA)]" numeric_result=6
binder="H[Aib][CNB]G[aThr][αMePhe(2-F)]TSD[Bip(2'-Et-4'-OMe)][2F‑APPA] (reading uncertain) [Seq. ID. No. 112: H-Aib-(CNB)-G-T(allo)-(α-Me-2F-Phe)-TSD-Bip(OMe)-(2F-APPA)]" numeric_result=5
binder="Ac-H[Aib][Leu(5,5,5,5',5',5'-F6)]GT[αMePhe(2-F)]TSD[Bip(2'-Et-4'-OMe)][2F‑APPA] [Seq. ID. No. 212: CH3CO-H-Aib-(Hfl)-GT-(α-Me-2F-Phe)-TSD-Bip(OMe)-(2F-APPA)]" numeric_result=8
binder="HSQGTFTSD[Bip(2'-Et-4'-OMe)][2F,4CF3‑APPA] [Seq. ID. No. 49: HSQGTFTSD-Bip(OMe)-(2F, 4CF3-APPA)]" numeric_result=8
binder="H[αMeP]QGTFTSD[Bip(2'-Et-4'-OMe)][ACPP] [Seq. ID. No. 11: H-(α-Me-Pro)-QGTFTSD-Bip(OMe)-(ACPP)]" numeric_result=0
binder="Ac-H[Aib]QG[aThr][αMePhe(2-F)][aThr]SD[Bip(2'-Et-4'-OMe)][2F‑APPA] (also: reduced (CH2) bonds between 9-10 and 10-11) [Seq. ID. No. 199: CH3CO-H-Aib-QG-T(allo)-(α-Me-2F-Phe)-T(allo)-SD-(CH2)-Bip(OMe)-(CH2)-(2F-APPA)]" numeric_result=3
